# Tested on: SNB-75 CNS
# protocol_summary: NCI tumour cell line growth inhibition, 48 h
value_kind: GI50

Some compounds with known GI50 results, for comparison:
Oc1ccc(Cl)cc1-c1cc(-c2ccccc2Cl)[nH]n1 ... 2770 nM
CNC(=O)c1ccccc1Nc1nc(Nc2ccc(N3CCOCC3)cc2OC)ncc1Cl ... 766 nM
O=C(CN1CCN(c2cc3c(cc2F)c(=O)c(C(=O)N/N=C/c2ccccc2O)cn3C2CC2)CC1)N/N=C\c1ccccc1O ... 1110 nM
Fc1ccc(Nc2ncnc3ccc(-c4cnc5[nH]ccc5c4)cc23)cc1Cl ... 1230 nM
Cc1cnc(NC(=O)C(Cc2ccccc2)NC(=O)c2ccccc2)s1 (stereo unspecified) ... 6530 nM

Q: Could you please provide reported GI50 for C=C1C(=O)[C@@]23CC[C@H]4[C@@](C)(CCC[C@@]4(C)C(=O)OC)[C@@H]2CC[C@]1(O)C3 ? Thanks!
Result: 3690 nM

----------
# Test system: COLO 205 colon
# protocol_summary: NCI tumour cell line growth inhibition, 48 h
Please provide measured TGI for the entries that follow.

Here are 6 compounds together with their reported answers.
CC(=O)OC1COC(n2c(=S)n(-c3ccc(C)cc3)c(=O)c3ccccc32)C(OC(C)=O)C1OC(C)=O (stereo not drawn) ... > 100 µM
CN(Cc1cnc2nc(N)nc(N)c2n1)c1ccc(C(=O)NCCS(=O)(=O)O)cc1 ... > 100 µM
CSCCCN(CCCSC)CCCSC ... > 100 µM
CS(=O)(=O)OCCCCOS(=O)(=O)CF ... > 100 µM
CCOC(=O)COc1cccc2c1C(=O)CCO2 ... > 100 µM
C=C(C)[C@@H]1CCC2=C[C@@H](OC2=O)[C@@H](C(=C)C)C2=CC(C(=O)O)=C(C1)O2 ... > 100 µM

Need TGI for each of these compounds.
1. O=C1N(Cl)C(=O)C(c2ccc(Cl)cc2)(c2ccc(Cl)cc2)N1Cl
2. O=C(/C=C/c1ccccc1Cl)c1ccc(Cl)c(Cl)c1
3. Cc1c2n(c(=O)[nH]c1=O)C1OC(CO)C(O2)C1N=[N+]=[N-] (stereo not drawn)
4. CSc1ccc(/C=C2\CN(C)C/C(=C\c3ccc(SC)cc3)C2=O)cc1

Result:
> 100 µM
> 100 µM
> 100 µM
61.6 µM

Would you mind giving TGI for every compound in the list below?
1. COc1ccc(N2CN3OC(=O)N(c4ccc(OC)cc4)[C@@]3(c3ccccc3)C2)cc1
2. O=[N+]([O-])c1cccc2nc3ccccc3c(NCCCCNc3c4ccccc4nc4cccc([N+](=O)[O-])c34)c12
3. CN(CC(=O)N1CC(CCl)c2ccc([N+](=O)[O-])cc21)CC(=O)N1CC(CCl)c2ccc([N+](=O)[O-])cc21 (stereo not drawn)

Result:
1: 80.1 µM; 2: 0.173 µM; 3: > 100 µM

----------
Would you mind telling me the reported TGI of each entry?
# Tested on: IGROV1 ovarian
# protocol_summary: NCI tumour cell line growth inhibition, 48 h

// known answers, use as guide
Cc1cc(=O)[nH]c2cc3oc4ccccc4c3cc12 ... > 100 µM
O=[N+]([O-])c1cnc(Sc2ccncn2)s1 ... 3.35 µM
COc1ccc(/C=C\c2cc(OC)c3c(c2)OCO3)c(O)c1O ... 20.9 µM
Cc1cc2nc(C(Cl)Cl)nc(-c3ccc(Cl)cc3)n2n1 ... 5.28 µM

Provide TGI values for the following items, in order.
1. CN(C)c1ccc(-c2cc(-c3ccc(Nc4nc(Nc5ccc(Cl)cc5)nc(Nc5ccc(Cl)cc5)n4)cc3)no2)cc1
2. NC(=O)C(=CNC(N)=S)C(N)=O
3. COc1cc2nc(C)nc(N[C@H](C)c3cc(N)cc(C(F)(F)F)c3)c2cc1O[C@H]1CCOC1
4. COc1cccc(-c2nc3ccccc3c(=O)[nH]2)c1
5. O=C(Nc1ccc(I)cc1)c1cc([N+](=O)[O-])ccc1O
6. O=C1C2=C(SCCS2)C(=O)c2ccccc21
7. O=C1N(Cl)C(=O)C(c2ccc(Cl)cc2)(c2ccc(Cl)cc2)N1Cl

Result:
1. 15 µM
2. > 100 µM
3. 20.3 µM
4. 58.8 µM
5. > 100 µM
6. 3.17 µM
7. > 100 µM
